- experimental-target: LOX (Mus musculus, UniProt P28301)
- Construct: Full length LOX cDNA was then PCR cloned into pEGFP-N1 (Clonetech), or biosensor vector proGFP2-N1; expressed in transfected cells; host or cells: MDCK cells grown as cysts on Matrigel, G418-selected
- Sequence (P28301 163-411): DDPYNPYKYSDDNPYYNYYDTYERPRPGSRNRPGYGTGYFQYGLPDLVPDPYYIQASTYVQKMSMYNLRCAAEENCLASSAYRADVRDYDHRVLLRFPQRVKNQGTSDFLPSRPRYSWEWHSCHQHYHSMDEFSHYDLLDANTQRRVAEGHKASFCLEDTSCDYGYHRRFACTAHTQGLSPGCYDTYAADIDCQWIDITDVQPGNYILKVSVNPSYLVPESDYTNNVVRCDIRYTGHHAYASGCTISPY
- assay-name: LOX activity in cysts assay (LOX-roGFP2 biosensor, MDCK cysts)
- Assay type: cell-based
- measurement-context: 10 uM; MDCK cysts; inhibitor added 30 min prior to imaging; DMSO = 0%, BAPN 1 mM = 100% inhibition; read-out: LOX biosensor inhibition (cyst) @ 10 uM
quantity-kind: inhibition at 10 µM (%)
Reply numerically in %, unit not repeated.

Worked examples follow.
* CCOc1ccc(N2C[C@H]3CN(CCc4cn[nH]c4)C[C@@H]2C(C)(C)C3)cc1 | 100
* CCOc1ccc(N2C[C@H]3CC(C)(C)[C@@H]2CCN3C(=O)NCCO)cc1 | 100
* CC1(C)C[C@@H]2CN(C(=O)N3CCN(S(C)(=O)=O)CC3)C[C@H]1N(c1ccc(N3CCS(=O)(=O)CC3)cc1)C2 | 79

Now, please, on to the next compound.
Exam item: // returns reported inhibition at 10 µM for input COc1cc(OC)cc(N2C[C@H]3CN(C(=O)N4CCS(=O)(=O)CC4)C[C@@H]2C(C)(C)C3)c1
Marked response: 88
